pIC50: −log10 of the molar value.
We begin with pIC50 values for PDE1A (Homo sapiens), as collected from the published literature.

Example compounds with recorded pIC50:
INSERT INTO measurements (compound, recorded_result) VALUES
  ('CC(C)N1CCC(CNC(=O)N2CC(c3nc4c(cnn4C4CCCCC4)c(=O)[nH]3)C2)CC1', '6.00 to 6.30'),
  ('Cc1cn2c(C3(C)CC3)ncc2c(=O)n1Cc1cccc(F)c1', 7.03),
  ('CCCc1nn(C)c2c(=O)[nH]c(N(C)Cc3ccc(-c4ccccn4)cc3)nc12', '6.30 to 7.00');

API: value(readout=pIC50, system=PDE1A (Homo sapiens)) for record Cc1nn(C2CCCCC2)c2nc(C3CCCN(C(=O)CCc4ccccc4)C3)[nH]c(=O)c12 (stereo not shown)
5.82 to 6.00

Record lookup: for PDE1A (Homo sapiens), what pIC50 belongs to `CC(C)CN(Cc1cccc(-n2cncn2)c1)c1nc2c(C(C)(C)C)nn(C)c2c(=O)[nH]1` ?
> 7.00

API: value(readout= pIC50, system= PDE1A (Homo sapiens), query= `CCCc1nn(C)c2c(=O)[nH]c(N(Cc3ccc(F)cc3)CC(C)C)nc12` )
> 7.00

Which measured pIC50 belongs to `Cc1ccc(Cc2nn3c(C4CCOCC4)ncc3c(=O)n2CC2CC2)cc1` , tested on PDE1A (Homo sapiens)?
7.20

Query pIC50 on PDE1A (Homo sapiens) for `Cc1nn2c(C3CCOCC3)ncc2c(=O)n1Cc1ccc(Cl)cc1`
7.46

Provide the documented pIC50 with PDE1A (Homo sapiens) as the system for `O=c1[nH]c(C2CN(c3ncc(CN4CCOCC4)s3)C2)nc2c1cnn2C1CCCCC1`
6.30 to 7.00

pIC50 of COc1ccccc1C(=O)N1CCCC(c2nc3c(c(C)nn3C3CCCCC3)c(=O)[nH]2)C1 (stereo not shown) on PDE1A (Homo sapiens)?
6.30 to 7.00

----------
pIC50: −log10 of the molar value.
Endpoint summary: pIC50, system: PDE1A (Homo sapiens, UniProt P54750), multiple sources combined.
Short version: pIC50 at least 7 is met, less is not met.

INSERT INTO measurements (molecule, assay_target, discrete_label) VALUES
  ('COc1ccc(Cn2c(C)nn3c(C4CCOCC4)ncc3c2=O)cc1', 'PDE1A (Homo sapiens, UniProt P54750)', 'met'),
  ('COc1ccc2c(N[C@@H]3COC[C@H]3OC)ncnc2c1OC (relative stereo)', 'PDE1A (Homo sapiens, UniProt P54750)', 'not met');

Is it the case that `CCNc1cc(-c2cccnc2OCC)nc2c(C)nn(C(C)C)c12` has pIC50 reaching or exceeding 7?
met

Form field: pIC50 at least 7? Entry: `CC(C)c1nn(C)c2nc(-c3cccs3)cc(NCc3ncn(C)n3)c12`
met

Answer whether pIC50 of `CC[C@@]12C=C(c3noc(=O)[nH]3)n3c4c(c5ccccc53)CCN(CCC1)[C@H]42` is greater than or equal to 7.
not met

Confirm if pIC50 reported for the molecule `COc1ccc2c(N(CC3CC3)[C@H]3CCOC3)ncnc2c1OC` is 7 or above.
not met

For this molecule, is measured pIC50 7 or higher? `Cc1cn2c(C3CCOCC3)ncc2c(=O)n1Cc1ccsc1`
not met

Does pIC50 meet or surpass 7 for `COCc1cccc(-c2cc(N[C@@H]3CCOC3)c3c(cnn3C(C)C)n2)c1` ?
not met

Could you please find out whether `CCOc1ncccc1-c1cc(NC)c2c(n1)c(C)nn2C(C)C` has pIC50 that meets 7 or exceeds it?
met

Determine whether this molecule has pIC50 no lower than 7: `CCCc1nn(C)c2c(=O)[nH]c(NCCc3cnn(-c4ccccc4)c3)nc12`
not met

Is reported pIC50 greater than or equal to 7 here: `CCOc1ncccc1-c1cc(NCc2cn[nH]c2)c2c(C(C)C)nc(C)n2n1`
met
